# Tested on: PC-3 cells
# procedureSummary: Cell growth inhibition (resazurin, 48 hours), PC-3
# Format: cell-based, human
# measurementSetup: Homo sapiens, PC-3, Table 6; PC-3 (n = 2)
quantity: pEC50
Conceptually, pEC50 converts a concentration in mol/L into minus its log10.

Enter reported pEC50 observed with PC-3 cells for C[C@@]12OC(=O)[C@]1([C@@H](O)[C@@H]1C=CCCC1)NC(=O)[C@@H]2CCCl [Formula II-16, Salinosporamide A]
7.51

====

Recorded measurements of EC50, one per entry
# measuredTarget: UniProtKB A0A5F9DQW2
# Sequence (A0A5F9DQW2 1-212): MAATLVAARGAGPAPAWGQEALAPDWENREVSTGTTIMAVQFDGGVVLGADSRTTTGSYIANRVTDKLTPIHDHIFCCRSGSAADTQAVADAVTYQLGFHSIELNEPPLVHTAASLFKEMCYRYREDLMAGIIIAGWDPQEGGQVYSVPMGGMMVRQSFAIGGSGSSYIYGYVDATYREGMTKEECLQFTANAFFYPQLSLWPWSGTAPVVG
# procedureSummary: Inhibition of caspase-like (PGPH) activity of 20S proteasome (Z-LLE-AMC)
# measurementSetup: Table 3; mean EC50; purified rabbit 20S proteasomes
# Experimental: A commercially available fluorogenic substrate specific for the PGPH activity was used instead of the chymotrypsin substrate supplied in the proteasome assay kit described above. The substrate Z-LLE-AMC was prepared as a 20 mM stock solution in DMSO, stored at −20° C. The source of the proteasomes was the commercially available kit from Calbiochem (Cat. #539158). […] The activity can then be determined by measuring the fluorescence of the released AMC (λex=390 nm and λem=460 nm). […]
Give the quantity in nM, number only.

entrySmiles	EC50 / nM
C[C@@]12OC(=O)[C@]1([C@@H](O)[C@@H]1C=CCCC1)NC(=O)[C@@H]2CCBr	250

Consider the compound C[C@@]12OC(=O)[C@]1([C@@H](O)C1CCCCC1)NC(=O)[C@@H]2CCCl and give its measured EC50.
1500

Consider the compound CCC(=O)OCC[C@H]1C(=O)N[C@@]2([C@@H](O)[C@@H]3C=CCCC3)C(=O)O[C@@]12C and give its measured EC50.
1300

Consider the compound C[C@H]1C(=O)N[C@@]2([C@@H](O)[C@@H]3C=CCCC3)C(=O)O[C@@]12C and give its measured EC50.
1400

====

Recorded measurements of EC50, one per entry
# measuredTarget: chymotrypsin-like activity of rabbit muscle 20S proteasomes (Oryctolagus cuniculus, UniProt G1T4Q9)
# Sequence (G1T4Q9 1-263): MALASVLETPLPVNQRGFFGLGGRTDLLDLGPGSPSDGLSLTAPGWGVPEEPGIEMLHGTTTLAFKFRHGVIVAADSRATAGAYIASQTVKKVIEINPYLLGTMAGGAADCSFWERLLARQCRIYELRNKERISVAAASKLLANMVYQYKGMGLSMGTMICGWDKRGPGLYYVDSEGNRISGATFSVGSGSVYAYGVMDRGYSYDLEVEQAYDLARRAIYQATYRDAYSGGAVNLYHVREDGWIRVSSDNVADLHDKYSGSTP
# procedureSummary: Inhibition of chymotrypsin-like activity of purified rabbit muscle 20S proteasome (suc-LLVY-AMC)
# Type: biochemical
# measurementSetup: Table 3; mean EC50; purified rabbit 20S proteasomes; read-out: EC50 Values, Chymotrypsin-like
Give the quantity in nM, number only.

Example cases with answers are listed next.
compound	quantity	experimentalValue
C[C@@]12OC(=O)[C@]1([C@@H](O)[C@H]1CCC[C@@H]3O[C@H]13)NC(=O)[C@@H]2CCCl	EC50	87
CC[C@@]12OC(=O)[C@]1([C@@H](O)[C@@H]1C=CCCC1)NC(=O)[C@@H]2CCCl [Formula II-24C]	EC50	2200
C[C@H]1C(=O)N[C@@]2([C@@H](O)[C@@H]3C=CCCC3)C(=O)O[C@@]12C	EC50	5

Consider the compound C[C@@]12OC(=O)[C@]1([C@@H](O)[C@@H]1C=CCCC1)NC(=O)[C@@H]2CCI and give its measured EC50.
3

====

# Tested on: PANC-1 cells
# procedureSummary: Cell growth inhibition (resazurin, 48 hours), PANC-1
# Assay type: cell-based
# measurementSetup: Table 2, PANC-1, human pancreatic carcinoma, read-out: EC50 (nM), mean ± SD
quantity: EC50

Consider the compound C[C@@]12OC(=O)[C@]1([C@@H](O)[C@@H]1C=CCCC1)NC(=O)[C@@H]2CCCl [Formula II-16, Salinosporamide A] and give its measured EC50.
60 nM
